# test_system: hAT1R (Homo sapiens, UniProt P30556)
# Sequence (P30556 whole entry): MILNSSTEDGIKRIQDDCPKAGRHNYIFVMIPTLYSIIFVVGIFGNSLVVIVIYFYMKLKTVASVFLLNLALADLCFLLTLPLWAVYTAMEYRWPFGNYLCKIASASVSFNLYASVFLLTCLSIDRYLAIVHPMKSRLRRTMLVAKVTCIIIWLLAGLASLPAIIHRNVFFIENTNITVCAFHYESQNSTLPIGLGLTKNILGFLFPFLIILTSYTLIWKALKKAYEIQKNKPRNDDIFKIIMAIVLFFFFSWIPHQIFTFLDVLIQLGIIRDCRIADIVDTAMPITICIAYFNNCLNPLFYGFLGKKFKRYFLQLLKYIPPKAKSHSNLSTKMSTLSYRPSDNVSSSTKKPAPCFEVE
# assay_remarks: FLIPR calcium flux assay, Part II: antagonist activity against Angiotensin II
# Type: cell-based
# experimental_conditions: read-out: hAT1R Antagonist IC50 Ave
Starred links: 1 amine or outer side, 2 acyl side, 3 side chain; linkers in the order of their positions; H or OH if unused. Non-standard residues stand in square brackets, D forms with d. Residues, ends and D or L forms follow the SMILES beside them. X1 = O=C(CN(C[C@H](O)[C@@H](O)[C@H](O)[C@H](O)CO)[*:1])[*:2]; dPhe(2-Cl) = N[C@H](Cc1ccccc1Cl)C(=O)O; Gly(cPent) = N[C@H](C(=O)O)C1CCCC1
Each entry below carries its reported pIC50.
On this scale, pIC50 is minus log10 of a concentration expressed in M (mol/L).

Recorded pIC50, per entry:
{"compound": "CNCC(=O)N[C@@H](CCCNC(=N)N)C(=O)N[C@H](C(=O)N[C@@H](Cc1ccc(O)cc1)C(=O)N[C@@H](CCCCN)C(=O)N[C@@H](Cc1c[nH]cn1)C(=O)N1CCC[C@H]1C(=O)N[C@H](Cc1cccc2ccccc12)C(=O)O)C(C)C [Compound 2, Sar-Arg-Val-Tyr-Lys-His-Pro-(D-1Nal)-OH] (HELM PEPTIDE1{[Sar].R.V.Y.K.H.P.[O=C(O)[C@@H](Cc1cccc2ccccc12)N[*:1]]}$$$$V2.0)", "test_system": "hAT1R (Homo sapiens, UniProt P30556)", "pIC50": 7.78}
{"compound": "CC(C)[C@H](NC(=O)[C@H](CCCNC(=N)N)NC(=O)CNC[C@H](O)[C@@H](O)[C@H](O)[C@H](O)CO)C(=O)N[C@@H](Cc1ccc(O)cc1)C(=O)N[C@H](C(=O)N[C@@H](Cc1c[nH]cn1)C(=O)N1CCC[C@H]1C(=O)N[C@H](Cc1ccccc1Cl)C(=O)O)C1CCCC1 [Compound 43] (H-[X1]RVY[Gly(cPent)]HP[dPhe(2-Cl)]-OH)", "test_system": "hAT1R (Homo sapiens, UniProt P30556)", "pIC50": 7.78}
{"compound": "CNCC(=O)N[C@@H](CCCNC(=N)N)C(=O)N[C@H](C(=O)N[C@@H](Cc1ccc(N)cc1)C(=O)N[C@H](C(=O)N[C@@H](Cc1c[nH]cn1)C(=O)N1CCC[C@H]1C(=O)N[C@H](Cc1ccccc1Cl)C(=O)O)C(C)C)C(C)C [Compound 33] (HELM PEPTIDE1{[Sar].R.V.[Nc1ccc(C[C@H](N[*:1])C(=O)[*:2])cc1].V.H.P.[O=C(O)[C@@H](Cc1ccccc1Cl)N[*:1]]}$$$$V2.0)", "test_system": "hAT1R (Homo sapiens, UniProt P30556)", "pIC50": 7.77}
{"compound": "CNCC(=O)N[C@@H](CCCNC(=N)N)C(=O)N[C@H](C(=O)N[C@@H](Cc1ccc(O)cc1)C(=O)N[C@H](C(=O)N[C@@H](Cc1c[nH]cn1)C(=O)N1CCC[C@H]1C(=O)N[C@H](Cc1cccc2ccccc12)C(=O)O)C1CCCCC1)C(C)C [Compound 34, Sar-Arg-Val-Tyr-Chg-His-Pro-(D-1Nal)-OH] (HELM PEPTIDE1{[Sar].R.V.Y.[O=C([C@@H](N[*:1])C1CCCCC1)[*:2]].H.P.[O=C(O)[C@@H](Cc1cccc2ccccc12)N[*:1]]}$$$$V2.0)", "test_system": "hAT1R (Homo sapiens, UniProt P30556)", "pIC50": 7.81}

Lab book: pIC50 of CNCC(=O)N[C@@H](CCCNC(=N)N)C(=O)N[C@H](C(=O)N[C@@H](Cc1ccc(O)cc1)C(=O)N[C@@H](Cc1cccs1)C(=O)N[C@@H](Cc1c[nH]cn1)C(=O)N1CCC[C@H]1C(=O)N[C@H](Cc1ccccc1Cl)C(=O)O)C(C)C [Compound 23] (HELM PEPTIDE1{[Sar].R.V.Y.[O=C([C@H](Cc1cccs1)N[*:1])[*:2]].H.P.[O=C(O)[C@@H](Cc1ccccc1Cl)N[*:1]]}$$$$V2.0) noted as 8.28
